- ASSAYED TARGET: T1, BODIPY-β-annulus peptide (tomato bushy stunt virus, BODIPY-maleimide added by Michael addition to the thiol of the N-terminal Cys)
- T1 construct: also called BODIPY-labelled β-annulus peptide; fluorescent-labelled β-annulus peptide; source: synthetic peptide (solid-phase Fmoc chemistry; labelled with BODIPY-maleimide; purified by reversed-phase HPLC)
- T1 peptide: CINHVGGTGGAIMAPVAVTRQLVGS
- TEST: fluorescence correlation spectroscopy (FCS); 0.1 μM BODIPY-β-annulus peptide with 0~200 μM β-annulus peptide in 10 mM Tris-HCl buffer (pH 7.0) with 15 wt% PEG2000, 25 °C; ratio of the slow component fitted to the Hill equation
- MEASUREMENT PARAMETERS: both partners purified
ENDPOINT NAME: Kd
Please state the value followed by its unit.

Sample INHVGGTGGAIMAPVAVTRQLVGS (also called unmodified β-annulus peptide; source: synthetic peptide (solid-phase Fmoc chemistry, purified by reversed-phase HPLC)) [24-mer β-annulus peptide from tomato bushy stunt virus] ; Kd observed: 4.24 µM
